System: SF-539 CNS
experiment: NCI tumour cell line growth inhibition, 48 h
property label: TGI

compound	property label	reported result
NC1(C(=O)O)CCc2ccc(N(CCCl)CCCl)cc2C1 (stereo not given)	TGI	> 100 µM
CCOc1ccc(/C(C=O)=C(\Cl)c2ccc(OC)c(OC)c2)cc1	TGI	> 100 µM
Cc1cc2c(C(C)C)c(O)c(O)c(C=NCCO)c2c(O)c1-c1c(C)cc2c(C(C)C)c(O)c(O)c(C=NCCO)c2c1O	TGI	5.37 µM
Fc1ccc(-c2nn3c(-c4cc(C(F)(F)F)cc(C(F)(F)F)c4)nnc3s2)cc1	TGI	> 50 µM
CCC(=O)NC(Nc1cccc(F)c1)(C(F)(F)F)C(F)(F)F	TGI	> 100 µM
COC(=O)c1ccc2c(c1)C(=O)c1c-2n(C)c(=O)c2cc(OC)c(OC)cc12	TGI	> 50 µM

QUERY: What value of TGI has been reported for the following compound? O=C1C(Nc2ccc(Br)cc2)=C(I)C(=O)c2ncccc21
RESULT: 2.49 µM

QUERY: Could you share which TGI value was measured for CN(C)c1ccc(-c2c(C#N)c(O)n(NS(=O)(=O)c3ccccc3)c(=O)c2C#N)cc1 ?
RESULT: > 100 µM

QUERY: Bench note: what TGI did O=C(CC(C(=O)c1cccs1)c1cccs1)c1ccccc1Cl (stereo not given) show?
RESULT: > 100 µM

QUERY: // lookup TGI for CC(C)(C)OC(=O)NCCC(=O)NC1(c2cc3ccccc3s2)CCCCC1
RESULT: 29.2 µM

* * *

Test system: OVCAR-8 ovarian
experiment: NCI tumour cell line growth inhibition, 48 h
property label: TGI

Completed entries (count: 5):
compound	study target	TGI
CC(C)=CCC1=C(OCC(=O)O)C(=O)c2ccccc2C1=O	OVCAR-8 ovarian	> 100 µM
CN(C)CCC=C1c2ccccc2C(C)(C)c2ccccc21	OVCAR-8 ovarian	37.6 µM
C=CCc1cc(C=C(C#N)C#N)cc(OC)c1O	OVCAR-8 ovarian	> 100 µM
CC[C@@H](C(=O)[C@H](C)[C@H](O)[C@@H](C)[C@H]1O[C@H]([C@@H](CC)C(=O)O)CC[C@H]1C)C1O[C@]2(C=C[C@@H](O)[C@]3(CC[C@@](C)([C@H]4CC[C@](O)(CC)[C@H](C)O4)O3)O2)[C@H](C)C[C@@H]1C (stereo partly drawn)	OVCAR-8 ovarian	> 100 µM
CCN1C(=O)/C(=C2\SC(c3ccccc3)(c3ccccc3)c3ccccc32)SC1=S	OVCAR-8 ovarian	> 100 µM

QUERY: State the recorded TGI for this entry: Cc1cc(=O)[nH]c2cc(NC(=O)C(CCCN=C(N)N)NC(=O)OCc3ccccc3)ccc12 (stereo not drawn)
RESULT: > 100 µM

QUERY: Record request: TGI value, item CCOC(=O)NC(C(=O)OCC)(N1CCN(c2cc3c(cc2F)c(=O)c(C(=O)O)cn3CC)CC1)C(F)(F)F (stereo not drawn)
RESULT: 34 µM

QUERY: So what does the record say about TGI for O=C1C(Cl)C2(CC(/C=C/c3ccccc3O)=NN2c2cccc(S(=O)(=O)O)c2)N1c1nc2ccccc2s1 (stereo not drawn) ?
RESULT: 63.9 µM

* * *

Tested on: NCI-H460 lung
experiment: NCI tumour cell line growth inhibition, 48 h
Overview of reported TGI across a group of molecules:

Solved cases (3 shown):
molecule	TGI
O=C(c1ccco1)c1c(C(F)(F)F)nc2ccc(C(F)(F)F)cc2[n+]1[O-]	> 100 µM
COc1cccc(C2ON=C(c3ccccc3)N2C23CC4CC(CC(C4)C2)C3)c1 (configuration not stated)	> 10 µM
COC(=O)C[CH2][Ge]([CH3])([CH3])[S]c1ccccc1	30.6 µM

QUERY: Consider the molecule shown here: Cc1ccc(Nc2[nH]c(=O)[nH]c(=O)c2C)cc1Cl What is its recorded TGI?
RESULT: > 100 µM

QUERY: Please give the measured TGI for this molecule: Cc1cc(=O)[nH]c2cc(NC(=O)C(CCCN=C(N)N)NC(=O)OCc3ccccc3)ccc12 (configuration not stated)
RESULT: > 100 µM

QUERY: GET /values?readout=TGI&item= c1cc(CSSCc2ccncc2)ccn1
RESULT: > 84.9 µM

QUERY: Need TGI, item CC(=O)Oc1c2c(c(CC=C(C)C)c3c1C(=O)C1=C[C@@H]4CC5C(C)(C)OC(C/C=C(/C)C(=O)O)(C4=O)[C@@]15O3)OC(C)(CCC=C(C)C)C=C2 (some centres not stated)
RESULT: 1.97 µM

QUERY: Param item = O=C(N=Nc1c(O)[nH]c2ccccc12)c1oc2ccccc2c1CN1CCN(c2ccccc2)CC1 ; retrieve measured TGI.
RESULT: 2.79 µM

QUERY: What value of TGI has been recorded for this entry: COc1ccc(N2C(=O)c3c(c4[nH]c5ccc(OC)cc5c4c4ccc(C(C)(C)C)cc34)C2=O)cc1
RESULT: > 100 µM

QUERY: Name the recorded TGI for O=c1oc2ccccc2c(O)c1/C=N/C(=S)NCc1ccccc1 .
RESULT: > 100 µM

QUERY: Tell me the measured TGI of Cc1ccc(S(=O)(=O)N2c3ccccc3[C@H]3CCC=C[C@H]32)cc1 , please.
RESULT: > 64.7 µM

QUERY: What does the record list as TGI for CCC(CCC(C)C1CCC2C3CC=C4CC(OC5OC(CO)C(O)C(O)C5O)CCC4(C)C3CCC12C)C(C)C (configuration not stated) ?
RESULT: > 100 µM

QUERY: Fill in the blank: the reported TGI of Cc1ccc(N=C2S/C(=C3/CCC=C3N3CCOCC3)N(c3ccc(Cl)cc3)C2=Nc2ccc(C)cc2)cc1 is ____.
RESULT: > 100 µM

QUERY: // returns reported TGI for input N.N.O=P([O-])([O-])CN(CCN(CP(=O)([O-])[O-])CP(=O)([O-])[O-])CP(=O)([O-])[O-].[Pt+2]
RESULT: > 100 µM

QUERY: Fill blank: measured TGI of the molecule O=C(/C=C/c1ccccc1Cl)c1cccc2ccccc12 is ____.
RESULT: 19.7 µM

* * *

Reported values of TGI for individual entries
Test system: 786-0 renal
experiment: NCI tumour cell line growth inhibition, 48 h

Below are worked cases with known answers.
compound	reported result
N#CCOc1ccc(/C=C/C(=O)c2ccc(Cl)cc2)cc1	48.1 µM
S=C(N/N=C/c1ccccn1)Nc1ccc(Cl)cc1	16.1 µM
COc1cccc(-n2cc(-c3nc(Nc4cc(C)[nH]n4)c4ccccc4n3)nn2)c1	9.85 µM
c1ccc(CN2CCC3(CC2)SSC2(CCN(Cc4ccccc4)CC2)SS3)cc1	> 100 µM
C[N+](C)(C)/N=C/c1ccc(O)c(O)c1	> 100 µM

QUERY: Suppose we examine the compound CC(Oc1ccc(OCC2CCCCC2)cc1)C(=O)NCCO (stereo unspecified) ; what TGI value has been reported?
RESULT: > 100 µM

QUERY: Quick one: TGI for c1cc2nnc1SCCCSc1ccc(nn1)SCCCSc1ccc(nn1)SCCCS2 ?
RESULT: > 100 µM

QUERY: Record request: TGI value, item CC1=C(C(=O)Nc2ccc3[nH]ncc3c2)C(c2ccc(Cl)c(Cl)c2)CC(=O)N1 (stereo unspecified)
RESULT: > 25 µM

* * *

Test system: DU-145 prostate
experiment: NCI tumour cell line growth inhibition, 48 h
This section presents molecules with their documented TGI values.
Hi! Could you send only the number? It should be in µM, unit omitted.

Example molecules with recorded TGI:
given smiles	result units	TGI
Cc1ccc(/C=C/C(=N/N=C(N)N)c2ccccc2)cc1	µM	10.8
CO[C@]12C=C/C(=C(/C(=O)OCc3cccnc3)C(=O)CCCCCCCC[C@@]3(OC)C=C/C(=C(/C(=O)OCc4cccnc4)C(=O)CCCCCCCC1)O3)O2	µM	12.7

QUERY: // fetch DU-145 prostate TGI for COc1ccc(-c2nn(-c3cccc(NC(=O)Nc4ccccc4)c3)cc2-c2ccncc2)cc1Cl
RESULT: 5.87

* * *

TGI listing for selected molecules.
System: 786-0 renal
experiment: NCI tumour cell line growth inhibition, 48 h

QUERY: Would you kindly share the measured TGI for O=C1C(Cl)C2(CC(/C=C/c3ccccc3O)=NN2c2cccc(S(=O)(=O)O)c2)N1c1nc2ccccc2s1 (stereo not given) ?
RESULT: 30 µM

QUERY: Item under review: O=C1CCCCC=C1C[N+](=O)[O-] . Reported TGI?
RESULT: 39.6 µM

QUERY: Bench note: what TGI did CC(C)(C)CNC(=O)NCn1cc(-c2ccccc2)nn1 show?
RESULT: > 100 µM

QUERY: Using the record for O=C(N/C(=C\c1ccc(/C=C(\NC(=O)c2ccccc2)c2nc3cc(Cl)ccc3[nH]2)cc1)c1nc2cc(Cl)ccc2[nH]1)c1ccccc1 , report its TGI.
RESULT: > 100 µM

QUERY: Could you tell me which TGI is on file for COC(=O)C1(C(=O)OC)N=C(C)OC1c1ccccn1 (stereo not given) ?
RESULT: > 100 µM

Origin of the recorded values: PubChem BioAssay (NCI)
